Hello, the source for this data is the supplement of paper PMC10065799, in case you need it.

Test system: Fer (mouse);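 also: 11-residue human phosphosite peptides and single-mutation variants displayed on the E. coli surface, counted by deep sequencing, each peptide's frequency after selection divided by its frequency in the unselected input library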;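 also: frequency after pTyr selection over input frequency; kinase dosed for 20-30% of maximal phosphorylation in three min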
Assay: phosphorylation enrichment, bacterial display (enrichment ratio); higher = better substrate or ligand; peptides without Tyr show the background

{"primary_sequence": "WHYTFYNELRV [ACTC1_Y93_H90Y]", "target_or_system": "Fer (mouse)", "phosphorylation enrichment": 0.651}
{"primary_sequence": "CTNELYMMMRD [FGFR1_Y730]", "target_or_system": "Fer (mouse)", "phosphorylation enrichment": 0.693}
{"primary_sequence": "EFGRRYGFSCQ [CCDC93_Y209_R213C_YF]", "target_or_system": "Fer (mouse)", "phosphorylation enrichment": 0.534}
{"primary_sequence": "DEEYEYMNRRR [ERBB3_Y1199]", "target_or_system": "Fer (mouse)", "phosphorylation enrichment": 0.466}
{"primary_sequence": "FARNSYVAGQF [G6PD_Y107_YF]", "target_or_system": "Fer (mouse)", "phosphorylation enrichment": 0.36}
{"primary_sequence": "EKDSNYCLCRT [ASIC2_Y357]", "target_or_system": "Fer (mouse)", "phosphorylation enrichment": 0.442}
{"primary_sequence": "DGTGHYLCNAC [GATA5_Y208]", "target_or_system": "Fer (mouse)", "phosphorylation enrichment": 0.458}
{"primary_sequence": "GELQGYDIMEP [MSH2_Y863_S860L]", "target_or_system": "Fer (mouse)", "phosphorylation enrichment": 0.471}
{"primary_sequence": "DNLSNYVFQGQ [GRIN2A_Y978_N976S]", "target_or_system": "Fer (mouse)", "phosphorylation enrichment": 0.416}
{"primary_sequence": "EADRKYEEVAR [TPM3_Y163]", "target_or_system": "Fer (mouse)", "phosphorylation enrichment": 0.712}
{"primary_sequence": "LRWREYQRQDY [PRKRIP1_Y90_R87W]", "target_or_system": "Fer (mouse)", "phosphorylation enrichment": 0.376}
{"primary_sequence": "AVISVYDLVAV [PSEN1_Y256]", "target_or_system": "Fer (mouse)", "phosphorylation enrichment": 13}
{"primary_sequence": "VNLVLHLSIAK [FBXO15_Y496_Y496H]", "target_or_system": "Fer (mouse)", "phosphorylation enrichment": 0.799}
{"primary_sequence": "SNPAYYVLEGV [INPPL1_Y987_N982S]", "target_or_system": "Fer (mouse)", "phosphorylation enrichment": 0.515}
{"primary_sequence": "VVLGSYDRLRV [IFT172_Y260]", "target_or_system": "Fer (mouse)", "phosphorylation enrichment": 0.45}
{"primary_sequence": "NKFTTYLPRLP [C9orf24_Y126_YF]", "target_or_system": "Fer (mouse)", "phosphorylation enrichment": 0.36}
{"primary_sequence": "LVTCSYLLGNS [LMNA_Y646_R644C]", "target_or_system": "Fer (mouse)", "phosphorylation enrichment": 0.959}
{"primary_sequence": "DYSLKYATDIP [APC_Y1183]", "target_or_system": "Fer (mouse)", "phosphorylation enrichment": 0.573}
{"primary_sequence": "SIKHKYVTALF [KCNH2_Y611_D609H_YF]", "target_or_system": "Fer (mouse)", "phosphorylation enrichment": 0.416}
{"primary_sequence": "EEKKKYYDTKI [CASP5_Y103]", "target_or_system": "Fer (mouse)", "phosphorylation enrichment": 0.465}
{"primary_sequence": "HCHEGYVLHGA [SVEP1_Y2921_I2922V]", "target_or_system": "Fer (mouse)", "phosphorylation enrichment": 0.911}
{"primary_sequence": "IGHGSYAKVLL [PRKCZ_Y263_R260H]", "target_or_system": "Fer (mouse)", "phosphorylation enrichment": 0.68}
{"primary_sequence": "WGTPEYDSVVA [MAP1A_Y1883_A1881P]", "target_or_system": "Fer (mouse)", "phosphorylation enrichment": 2.73}
{"primary_sequence": "LDFNEYVRDLN [HPRT1_Y198_F199V_YF]", "target_or_system": "Fer (mouse)", "phosphorylation enrichment": 0.634}
{"primary_sequence": "KMKGEYYRYLA [YWHAG_Y130_D129E]", "target_or_system": "Fer (mouse)", "phosphorylation enrichment": 0.409}
{"primary_sequence": "CTTFHYNYMCN [TP53_Y234_I232F]", "target_or_system": "Fer (mouse)", "phosphorylation enrichment": 0.659}
{"primary_sequence": "DFSLKYATDIP [APC_Y1183_YF]", "target_or_system": "Fer (mouse)", "phosphorylation enrichment": 0.536}
{"primary_sequence": "QADVIYVNTQL [MERTK_Y872]", "target_or_system": "Fer (mouse)", "phosphorylation enrichment": 8.63}
{"primary_sequence": "VQVAYYTVMMN [SPATA17_Y84_M86V]", "target_or_system": "Fer (mouse)", "phosphorylation enrichment": 1.97}
{"primary_sequence": "LEAVSYSSRYA [RNLS_Y190]", "target_or_system": "Fer (mouse)", "phosphorylation enrichment": 0.433}
{"primary_sequence": "MSNFAYVKREV [SCN1A_Y1694]", "target_or_system": "Fer (mouse)", "phosphorylation enrichment": 0.419}
{"primary_sequence": "PKSLFYLLLKL [TRPC6_Y775]", "target_or_system": "Fer (mouse)", "phosphorylation enrichment": 1.51}
{"primary_sequence": "EADRKYEEVAC [TPM3_Y163_R168C]", "target_or_system": "Fer (mouse)", "phosphorylation enrichment": 0.61}
{"primary_sequence": "PFTRNYFVRAV [CYBA_Y87_YF]", "target_or_system": "Fer (mouse)", "phosphorylation enrichment": 0.408}
{"primary_sequence": "ERIEFYELDKK [PMM2_Y145]", "target_or_system": "Fer (mouse)", "phosphorylation enrichment": 0.742}
{"primary_sequence": "LHQSTYQCFDV [SLC7A14_Y693_R695C_YF]", "target_or_system": "Fer (mouse)", "phosphorylation enrichment": 2.23}
{"primary_sequence": "SDYSRYARTSI [TERT_Y949_S948R]", "target_or_system": "Fer (mouse)", "phosphorylation enrichment": 0.388}
{"primary_sequence": "ADQLDYIKALN [HPRT1_Y81_L78Q]", "target_or_system": "Fer (mouse)", "phosphorylation enrichment": 0.451}
{"primary_sequence": "VDLSKCITTIA [FAS_Y232_Y232C]", "target_or_system": "Fer (mouse)", "phosphorylation enrichment": 0.413}
{"primary_sequence": "LVPAWYIGFLC [KCNQ2_Y237_T234P]", "target_or_system": "Fer (mouse)", "phosphorylation enrichment": 0.56}
{"primary_sequence": "PLDGEYFTLQV [TP53_Y327_I332V]", "target_or_system": "Fer (mouse)", "phosphorylation enrichment": 0.842}
{"primary_sequence": "RHLQEYQDLLN [GFAP_Y349]", "target_or_system": "Fer (mouse)", "phosphorylation enrichment": 0.389}
{"primary_sequence": "FNVLQYVVPKV [EIF3A_Y382_E386K]", "target_or_system": "Fer (mouse)", "phosphorylation enrichment": 0.348}
{"primary_sequence": "WHHIFYNELRV [ACTG1_Y91_T89I]", "target_or_system": "Fer (mouse)", "phosphorylation enrichment": 0.536}
{"primary_sequence": "PYIDSYEKDVA [PGM1_Y521_L516P]", "target_or_system": "Fer (mouse)", "phosphorylation enrichment": 0.852}
{"primary_sequence": "AKNKDYMSFIR [GNE_Y197_I200F]", "target_or_system": "Fer (mouse)", "phosphorylation enrichment": 0.34}
{"primary_sequence": "KLFIEYPTGSG [IRF2BPL_Y423]", "target_or_system": "Fer (mouse)", "phosphorylation enrichment": 0.301}
{"primary_sequence": "KLPYPYDDPFS [GPX2_Y127]", "target_or_system": "Fer (mouse)", "phosphorylation enrichment": 0.434}
{"primary_sequence": "CTTIHKNFMCN [TP53_Y234_Y234K_YF]", "target_or_system": "Fer (mouse)", "phosphorylation enrichment": 0.453}
{"primary_sequence": "KKHFSYAWPFY [BRDT_Y291]", "target_or_system": "Fer (mouse)", "phosphorylation enrichment": 0.385}
{"primary_sequence": "AKKVFYVNETR [SHH_Y253_I255N]", "target_or_system": "Fer (mouse)", "phosphorylation enrichment": 0.338}
{"primary_sequence": "AAQNCYKVTNG [TPI1_Y105]", "target_or_system": "Fer (mouse)", "phosphorylation enrichment": 0.391}
{"primary_sequence": "CLEKEYFDQHF [NPC1_Y394_R389C]", "target_or_system": "Fer (mouse)", "phosphorylation enrichment": 0.593}
{"primary_sequence": "VVTFSYKPAGN [RBL2_Y544_P547A]", "target_or_system": "Fer (mouse)", "phosphorylation enrichment": 0.378}
{"primary_sequence": "TLNHQYDFTFD [CSNK1A1_Y292_YF]", "target_or_system": "Fer (mouse)", "phosphorylation enrichment": 0.543}
{"primary_sequence": "VDTFWYKFLKR [EPM2A_Y86]", "target_or_system": "Fer (mouse)", "phosphorylation enrichment": 0.525}
{"primary_sequence": "DVSKEYGHLLP [HRC_Y99]", "target_or_system": "Fer (mouse)", "phosphorylation enrichment": 0.656}
{"primary_sequence": "IPVNGYQPVPA [ROR2_Y824_V819I]", "target_or_system": "Fer (mouse)", "phosphorylation enrichment": 0.337}
